Recorded measurements of pIC50, one per entry
Target: human recombinant 6His-Nterm SHP2 full-length (Thr2-Arg593) (Homo sapiens)
Construct: 6His-Nterm SHP2 full-length (Thr2-Arg593, R&D system); 6His (N)
Sequence (Q06124 2-593): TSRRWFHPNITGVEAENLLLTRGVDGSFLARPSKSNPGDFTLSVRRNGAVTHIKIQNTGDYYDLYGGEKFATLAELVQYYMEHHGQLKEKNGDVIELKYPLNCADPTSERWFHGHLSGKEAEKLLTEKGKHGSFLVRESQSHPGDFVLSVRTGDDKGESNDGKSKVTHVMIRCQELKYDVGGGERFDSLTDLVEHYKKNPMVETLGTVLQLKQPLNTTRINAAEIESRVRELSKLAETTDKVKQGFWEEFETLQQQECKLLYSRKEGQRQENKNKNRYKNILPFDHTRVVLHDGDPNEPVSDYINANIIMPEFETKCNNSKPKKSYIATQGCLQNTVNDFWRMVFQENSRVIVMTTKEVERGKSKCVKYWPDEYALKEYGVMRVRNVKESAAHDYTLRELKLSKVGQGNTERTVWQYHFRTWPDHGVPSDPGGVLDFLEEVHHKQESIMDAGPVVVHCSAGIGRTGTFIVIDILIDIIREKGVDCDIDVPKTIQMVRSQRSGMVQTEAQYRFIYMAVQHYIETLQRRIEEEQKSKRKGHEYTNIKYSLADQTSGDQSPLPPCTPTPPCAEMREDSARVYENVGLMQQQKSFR
Test: SHP2 Phosphatase Assay (DiFMUP fluorescence)
Settings: SHP2 0.2 nM pre-incubated with 100 nM bi-phosphorylated activating peptide; compound 1000-0.05 nM, 30 min pre-incubation; DiFMUP 20 µM, 45 min, room temperature; 10-concentration dose-response
Structures can show the parent of a compound that is named as a salt.
Please treat pIC50 as minus the base-10 logarithm of the molar concentration.

Field: example entries. Status: answers known.
Cc1nccc(-c2c(C)nc(N3CCC4(CC3)Cc3ccncc3[C@H]4N)c3ccnn23)c1Cl = 8.40
Cc1cc2c(cn1)CC1(CCN(c3nc(C)c(-c4ccnc(C)c4Cl)n4nccc34)CC1)[C@@H]2N [Compound 112, hydrochloride] = 8.30
CCn1cc(-c2c(C)nc(N3CCC4(CC3)Cc3cc(OC)ccc3[C@H]4N)c3ccnn23)cn1 = 8.05
Cc1nc(N2CCC3(CC2)Cc2ncccc2[C@H]3N)c2ccnn2c1-c1cccc2c1OCC2 = 7.85
Cc1nc(N2CCC3(CC2)Cc2c(F)cccc2[C@H]3N)c2ccnn2c1-c1cnn2ccccc12 [Compound 96, formate] = 7.96

## Input // lookup pIC50 for [2H]c1c([2H])c([2H])c(-c2c(C)nc(N3CCC4(CC3)Cc3ncccc3[C@H]4N)c3ccnn23)c([2H])c1[2H]
## Output 8.00

## Input pIC50 lookup needed for Cc1nccc(-c2c(C)nc(N3CCC4(CC3)Cc3ncccc3[C@H]4N)c3ccnn23)c1Cl , thanks.
## Output 8.10

---

Biological target: human recombinant 6His-Nterm SHP2 full-length (Thr2-Arg593) (Homo sapiens)
Construct: 6His-Nterm SHP2 full-length (Thr2-Arg593, R&D system); 6His (N)
Experiment: SHP2 Phosphatase Assay (DiFMUP fluorescence)
Conditions: SHP2 0.2 nM pre-incubated with 100 nM bi-phosphorylated activating peptide; compound 1000-0.05 nM, 30 min pre-incubation; DiFMUP 20 µM, 45 min, room temperature; 10-concentration dose-response
Where a name gives a salt, the structure may show the parent alone.
Quick rule for you: IC50 under 0.01 µM gets condition met, anything else gets condition not met.

Answered cases to consult:
Cc1nc(N2CCC3(CC2)Cc2nccnc2[C@H]3N)c2ccnn2c1-c1ccccc1F = condition not met
Cc1nc2c(s1)[C@@H](N)C1(CCN(c3nc(C)c(-c4cnn(C)c4C)n4nccc34)CC1)C2 [Compound 82, hydrochloride] = condition not met

## Input Hello, is IC50 of the following molecule strictly smaller than 0.01 µM? Cc1nc(N2CCC3(CC2)Cc2ncccc2[C@H]3N)c2ccnn2c1C1=CCOCC1
## Output condition not met

## Input Is 0.01 µM strictly greater than the molecule's reported IC50? molecule: Cc1cc2c(cn1)CC1(CCN(c3nc(C)c(-c4ccnc(C)c4F)n4nccc34)CC1)[C@@H]2N
## Output condition met

## Input State whether 0.01 µM exceeds IC50 recorded for Cc1nn(C)cc1-c1c(C)nc(N2CCC3(CC2)Cc2ncccc2[C@H]3N)c2ccnn12 .
## Output condition not met

---

Molecular target: human recombinant 6His-Nterm SHP2 full-length (Thr2-Arg593) (Homo sapiens)
Construct: 6His-Nterm SHP2 full-length (Thr2-Arg593, R&D system); 6His (N)
Assay: SHP2 Phosphatase Assay (DiFMUP fluorescence)
Settings: SHP2 0.2 nM pre-incubated with 100 nM bi-phosphorylated activating peptide; compound 1000-0.05 nM, 30 min pre-incubation; DiFMUP 20 µM, 45 min, room temperature; 10-concentration dose-response
Structures can show the parent of a compound that is named as a salt.
measurement.type: pIC50
In textbook form, pIC50 equals minus log to base ten of the concentration in mol/L.

Cc1nc(N2CCC3(CC2)Cc2ncccc2[C@H]3N)c2ccnn2c1-c1cccs1 [Compound 99, hydrochloride] = 8.05
COc1cccc(-c2cnc(N3CCC4(CC3)Cc3ncccc3[C@H]4N)c3ccnn23)c1F [Compound 85, hydrochloride] = 7.57
Cc1nc(N2CCC3(CC2)Cc2ncccc2[C@H]3N)c2ccnn2c1-c1ccc(F)c(F)c1 = 8.52
Cc1nccc(-c2c(C)nc(N3CCC4(CC3)Cc3ncsc3[C@H]4N)c3ccnn23)c1Cl [Compound 73, hydrochloride] = 8.30
Cc1nc(N2CCC3(CC2)Cc2scnc2[C@H]3N)c2ccnn2c1-c1cccc(F)c1F [Compound 65, hydrochloride] = 7.66

## Input GET /values?readout=pIC50&system=human recombinant 6His-Nterm SHP2 full-length (Thr2-Arg593) (Homo sapiens)&item= Cc1nc(N2CCC3(CC2)Cc2ncccc2[C@H]3N)c2ccnn2c1-c1ccccc1Cl
## Output 7.96

## Input pIC50 of COc1cccc(-c2c(C)nc(N3CCC4(CC3)Cc3ncccc3[C@H]4N)c3ccnn23)c1 on human recombinant 6His-Nterm SHP2 full-length (Thr2-Arg593) (Homo sapiens)?
## Output 8.22
